# System: Staphylococcus aureus
# method notes: Inhibitory zone of compound at 30 ug against Staphylococcus aureus 1104 was determined
# Assay type: functional
Each entry gets NO if its Inhibition zone stays under 30 mm, and YES if its Inhibition zone is 30 mm or above.

Inquiry: Reported Inhibition zone at or above 30 mm? CC(C)(C)C1=C(C(=O)[O-])N2C(=O)C[C@H]2[S+]1[O-].[K+] (stereo partly specified)
Reply text: YES

Inquiry: Test whether the compound N[C@@H](C(=O)N[C@@H]1C(=O)N2C(C(=O)O)=C(Cl)CS[C@H]12)c1ccccc1.O records Inhibition zone of 30 mm or higher.
Reply text: YES

Inquiry: Threshold query (Inhibition zone >= 30 mm) on C[C@@H](O)[C@H]1C(=O)N2C(C(=O)[O-])=C(C(C)(C)C)S[C@H]12.[K+]
Reply text: YES

Inquiry: Dear colleague, could you confirm whether C[C@@H](O)[C@H]1C(=O)N2C(C(=O)[O-])=C(C(C)(C)C)S(=O)(=O)[C@H]12.[K+] has Inhibition zone at or above 30 mm?
Reply text: NO

Inquiry: Please check the record CC(C)(C)C1=C(C(=O)[O-])N2C(=O)C[C@H]2S1.[K+] and state if its Inhibition zone is at or above 30 mm.
Reply text: YES

---

# target entity: Beta-lactamase TEM (Escherichia coli, UniProt P62593)
# Sequence (P62593 whole entry): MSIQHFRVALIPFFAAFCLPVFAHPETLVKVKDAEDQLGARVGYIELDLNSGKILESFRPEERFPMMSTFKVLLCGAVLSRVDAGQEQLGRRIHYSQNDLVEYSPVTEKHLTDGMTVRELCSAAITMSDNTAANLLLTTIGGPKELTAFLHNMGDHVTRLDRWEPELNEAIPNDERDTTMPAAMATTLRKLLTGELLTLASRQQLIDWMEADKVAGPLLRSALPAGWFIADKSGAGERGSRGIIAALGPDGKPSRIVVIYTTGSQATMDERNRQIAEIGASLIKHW
# method notes: Compound was evaluated for beta-lactamase inhibition activity of Escherichia coli after 15 min of pre-incubation with the enzyme at 37 degree C
# Set-up: species or system Escherichia cloacae
endpoint: IC50 (µM)
Numeric only. Scale: µM

Inquiry: Report IC50 for C[C@@H](O)[C@H]1C(=O)N2C(C(=O)[O-])=C(C(C)(C)C)S[C@H]12.[K+] please.
Reply text: 50

---

# Test system: Escherichia coli
# method notes: Inhibitory zone of compound at 30 ug against Escherichia coli 1103 was determined
# Format: functional
Answer each item with its documented Inhibition zone.
Dear colleague, please return just the value in mm, with no unit written.

Inquiry: # lookup: Inhibition zone of C[C@@H](O)[C@H]1C(=O)N2C(C(=O)[O-])=C(C(C)(C)C)[S+]([O-])[C@H]12.[K+] (stereo partly specified)
Reply text: 20

Inquiry: For the compound CC(C)(C)C1=C(C(=O)[O-])N2C(=O)C[C@H]2[S+]1[O-].[K+] (stereo partly specified) , what Inhibition zone is on record?
Reply text: 10

Inquiry: Returns the measured Inhibition zone for the input compound. Input: CC(C)(C)C1=C(C(=O)[O-])N2C(=O)C[C@H]2S1.[K+]
Reply text: 11

Inquiry: I am curious: what Inhibition zone value has been reported for C[C@@H](O)[C@H]1C(=O)N2C(C(=O)[O-])=C(C(C)(C)C)S(=O)(=O)[C@H]12.[K+] ?
Reply text: 0

Inquiry: For the compound shown here, N[C@@H](C(=O)N[C@@H]1C(=O)N2C(C(=O)O)=C(Cl)CS[C@H]12)c1ccccc1.O , give the reported Inhibition zone.
Reply text: 25

Inquiry: Please report the recorded Inhibition zone for C[C@@H](O)[C@H]1C(=O)N2C(C(=O)[O-])=C(C(C)(C)C)S[C@H]12.[K+] .
Reply text: 18

---

Exercise: state measured pIC50 for each of the compounds provided.
# target entity: Beta-lactamase TEM (Escherichia coli, UniProt P62593)
# method notes: Compound was evaluated for beta-lactamase inhibition activity of Escherichia coli after 15 min of pre-incubation with the enzyme at 37 degree C
# pIC50: negative log10 of molar concentration; output just the value

Inquiry: Would you kindly share the measured pIC50 for C[C@@H](O)[C@H]1C(=O)N2C(C(=O)[O-])=C(C(C)(C)C)[S+]([O-])[C@H]12.[K+] (some centres not stated) ?
Reply text: 4.05

Inquiry: Reported pIC50, compound C[C@@H](O)[C@H]1C(=O)N2C(C(=O)[O-])=C(C(C)(C)C)S(=O)(=O)[C@H]12.[K+] : ____
Reply text: 5.00
